- System: test plant species
- experiment: Post-emergent herbicidal activity test (greenhouse, foliar spray, visual growth reduction)
- Format: in vivo
- details: post-emergence, 336 h, AVEFA: wild oat (Avena fatua), 140 g ai/ha, 14 days after application, read-out: Visual Growth Reduction (%) 14 Days After Application, AVEFA
assay-readout: pest or weed control at 140 g/ha

// query Could you tell me which pest or weed control at 140 g/ha is on file for `COC(=O)c1nc(-c2ccc(C(F)(F)F)cc2Cl)c(SC)cc1Cl` ?
// result 0 to 29%

***
// query Could you tell me which pest or weed control at 140 g/ha is on file for COC(=O)c1nc(-c2c(Cl)cc(C(F)(F)F)cc2[S+](C)[O-])ccc1Cl (stereo not drawn) ?
// result 0 to 29%

// query Could you tell me which pest or weed control at 140 g/ha is on file for `COC(=O)c1nc(-c2ccc(OC(F)F)cc2Cl)ccc1Cl` ?
// result 45 to 59%

// query Could you tell me which pest or weed control at 140 g/ha is on file for `COC(=O)c1nc(-c2ccc(Cl)cc2)ccc1Cl` ?
// result 0 to 29%

// query Could you tell me which pest or weed control at 140 g/ha is on file for `COC(=O)c1nc(-c2ccc(C(F)(F)F)nc2)c(F)cc1Cl` ?
// result 0 to 29%

// query Could you tell me which pest or weed control at 140 g/ha is on file for `COc1c(Cl)ccc(-c2nc(C(=O)O)c(Cl)c(Cl)c2F)c1F` ?
// result 0 to 29%

// query Could you tell me which pest or weed control at 140 g/ha is on file for `COC(=O)c1nc(-c2c(F)cc(Cl)cc2Cl)ccc1Cl` ?
// result 0 to 29%
